The measurements presented in this section are drawn from the RNAGym collection of RNA variant scans (doi:10.7554/elife.90254).

B1: LINE1-full (parent)
chain: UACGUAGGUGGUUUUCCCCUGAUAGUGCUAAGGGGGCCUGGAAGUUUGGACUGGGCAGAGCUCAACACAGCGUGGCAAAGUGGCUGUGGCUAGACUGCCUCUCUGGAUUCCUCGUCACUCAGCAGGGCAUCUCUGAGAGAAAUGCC

- Variants of: B1
- measurement.description: self-cleavage, relative activity (ratio to wild type); higher = more cleavage; in vitro, sequencing; the parent is a self-cleaving ribozyme
attribute.measured: self-cleavage

INSERT INTO results (biopolymer_sequence, experimental_value) VALUES
  ('UACGUAGGUGGUUUUCCCCUGAUAGUGCUAAGGGGGCCUGGAAGUUUGUACUGGGCAGAGCUCAACACAGCGUGGCAAAGUGGCUGUGGCUAGACUGCCUCUCUGGAUCCCUCGUCACUCAGCAGGGCAUCUCUGAGAGAAAUGCC', 0.95);

Field request: self-cleavage | item: UACGUAGGUGGUUUUCCCCUGAUAGUGCUAAGGGGGCCUGGAAGUUUGGACUGGGCAGAGCUCAACACAGCGUGGCAAAGUGGCUGUGGUUAGACUGCCUCUCUGGAUUCCUCGUCACUCAGCAGGGCAUCUCUGAGAGAAAUGCC
0.03

Quick one: UACGUAGGUGGUUUUCCCCUGAUAGUGCUAAGGGGGCCUGGAAGUUUGGACUGGGCAGAGCUCAACGCAGCGUGGCAAAGUGGCUGUGGCUAGACUGCCUCUCAGGAUUCCUCGUCACUCAGCAGGGCAUCUCUGAGAGAAAUGCC
0.36

Quick one: UACGUUGGUGGUUUUCCCCUGAUAGUGCUAAGGGGGCCUGGAAGUUUGGACUGGGCAGAGCUCAACACAGCGUGGCAAAGUGGCUGUGGCUAGACUACCUCUCUGGAUUCCUCGUCACUCAGCAGGGCAUCUCUGAGAGAAAUGCC
0.12

Quick one: UACGUUGGUGGUUUUCCCCUGAUAGUGCUAAGGGGGCCUGGAAGUUUGGACUGGGCAGAGCUCAUCACAGCGUGGCAAAGUGGCUGUGGCUAGACUGCCUCUCUGGAUUCCUCGUCACUCAGCAGGGCAUCUCUGAGAGAAAUGCC
0.33

Quick one: UACGUAGGUGGUUUUCCCCUGAUAGCGCUAAGGGGGCCUGGAAGUUUGGACUGGGCAGAGCUCAACACAGCGUGGCAAAGUGGCUGUGGCUAGACUGCCUCUCUGGAUUCCUCAUCACUCAGCAGGGCAUCUCUGAGAGAAAUGCC
1.22

Quick one: UACGUAGGUGGUUUUCCCCUGAUAGUGCUAAGGGGGCCUGGAAGUUUGGACUGGGCAGUGCUCAACACAGCGUGGCAAAGUGGCUGUGGCUAGACUGCCUCUCAGGAUUCCUCGUCACUCAGCAGGGCAUCUCUGAGAGAAAUGCC
0.81

Quick one: UACGUAGGUGGUUUUCCCCUGAUAGUGCUAAGGGGGCCUGGAAGUUUGGACUGGGCAGAGCUUAACACAGCGUGGCAAAGUGGCUGUGGCUAGACUGCCUCUCUGGGUUCCUCGUCACUCAGCAGGGCAUCUCUGAGAGAAAUGCC
0.45
